# pIC50 listing for each entry below
- SYSTEM UNDER TEST: mTOR (Homo sapiens, UniProt P42345)
- Construct: FLAG; made in house
- Sequence (P42345 1362-2549): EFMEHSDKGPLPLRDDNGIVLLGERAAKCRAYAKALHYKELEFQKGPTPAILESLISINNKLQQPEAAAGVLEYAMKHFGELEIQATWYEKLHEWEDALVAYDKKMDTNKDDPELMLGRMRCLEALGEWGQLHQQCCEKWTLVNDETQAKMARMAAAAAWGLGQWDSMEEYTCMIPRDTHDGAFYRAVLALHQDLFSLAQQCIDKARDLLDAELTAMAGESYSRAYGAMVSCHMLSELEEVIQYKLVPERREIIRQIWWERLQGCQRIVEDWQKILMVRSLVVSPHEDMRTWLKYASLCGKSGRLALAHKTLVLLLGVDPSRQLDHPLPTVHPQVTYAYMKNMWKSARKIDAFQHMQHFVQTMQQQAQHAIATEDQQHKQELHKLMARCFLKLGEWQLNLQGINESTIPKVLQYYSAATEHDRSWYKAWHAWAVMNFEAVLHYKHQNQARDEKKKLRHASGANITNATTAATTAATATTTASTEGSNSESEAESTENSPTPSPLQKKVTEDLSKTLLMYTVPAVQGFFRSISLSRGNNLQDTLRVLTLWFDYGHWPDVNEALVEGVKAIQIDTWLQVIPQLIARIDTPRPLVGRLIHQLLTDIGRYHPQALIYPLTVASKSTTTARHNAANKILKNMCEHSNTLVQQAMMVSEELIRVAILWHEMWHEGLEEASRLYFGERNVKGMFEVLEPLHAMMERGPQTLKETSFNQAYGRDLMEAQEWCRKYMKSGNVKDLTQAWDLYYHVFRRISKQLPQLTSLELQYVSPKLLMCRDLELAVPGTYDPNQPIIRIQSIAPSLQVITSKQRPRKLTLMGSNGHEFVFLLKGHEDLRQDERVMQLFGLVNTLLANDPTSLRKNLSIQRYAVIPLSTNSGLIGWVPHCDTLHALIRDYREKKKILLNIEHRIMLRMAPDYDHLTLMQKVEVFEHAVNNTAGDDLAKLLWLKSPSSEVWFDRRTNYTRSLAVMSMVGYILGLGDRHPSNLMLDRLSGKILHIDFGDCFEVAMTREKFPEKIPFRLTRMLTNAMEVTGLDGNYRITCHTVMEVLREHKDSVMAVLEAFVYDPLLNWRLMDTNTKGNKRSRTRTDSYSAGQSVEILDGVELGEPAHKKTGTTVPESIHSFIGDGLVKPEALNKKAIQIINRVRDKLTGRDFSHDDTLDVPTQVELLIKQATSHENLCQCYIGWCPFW
- TEST DETAILS: In Vitro mTOR Kinase Assay (Echo), Test (a)(ii)
- Type: biochemical
- TEST PARAMETERS: table of enzyme assay Test (a)(ii); read-out: Test (a)(ii) IC50
- Excerpt: (a)(ii) In Vitro mTOR Kinase Assay (Echo) The assay used AlphaScreen technology (Gray et al., Analytical Biochemistry, 2003, 313: 234-245) to determine the ability of test compounds to inhibit phosphorylation by recombinant mTOR. A C-terminal truncation of mTOR encompassing amino acid residues 1362 to 2549 of mTOR (EMBL Accession No. L34075) was stably expressed as a FLAG-tagged fusion in HEK293 cells as described by Vilella-Bach et al., Journal of Biochemistry, 1999, 274, 4266-4272. […]
pIC50: −log10 of the molar value.
MEASURE: pIC50

COMPOUND: Cc1nc(S(=O)(=O)C2(c3cc(N4CCOC[C@@H]4C)nc(-c4ccc(NC(=O)NCCO)cc4)n3)CC2)sc1C [Example 80c]
MEASURE: pIC50
DATA VALUE: 8.04
//
COMPOUND: CCNC(=O)Nc1ccc(-c2nc(N3[C@@H](C)COC[C@@H]3C)cc(C3(S(=O)(=O)c4ccccc4)CC3)n2)cc1 [Example 72]
MEASURE: pIC50
DATA VALUE: 8.36
//
COMPOUND: C[C@H]1COCCN1c1cc(C2(S(=O)(=O)c3ccccc3)CC2)nc(-c2ccc(NC(=O)NC3CCC3)cc2)n1 [Example 36bd]
MEASURE: pIC50
DATA VALUE: 8.59
//
COMPOUND: C[C@@H](CO)NC(=O)Nc1ccc(-c2nc(N3CCOC[C@@H]3C)cc(C3(S(=O)(=O)c4ccccc4)CCC3)n2)cc1 [Example 64p]
MEASURE: pIC50
DATA VALUE: 8.40

---

- SYSTEM UNDER TEST: mTOR (Homo sapiens, UniProt P42345)
- Construct: FLAG; made in house
- TEST DETAILS: In Vitro mTOR Kinase Assay (Echo), Test (a)(ii)
- Type: biochemical
- TEST PARAMETERS: table of enzyme assay Test (a)(ii); read-out: Test (a)(ii) IC50
pIC50: −log10 of the molar value.
MEASURE: pIC50

COMPOUND: C[C@H]1COCCN1c1cc(C2(S(=O)(=O)c3ccccc3)CC2)nc(-c2ccc(NC(=S)NC3CC3)cc2)n1 [Example 37v]
MEASURE: pIC50
DATA VALUE: 8.26
//
COMPOUND: C[C@H]1COCCN1c1cc(C2(S(C)(=O)=O)CC2)nc(-c2ccc(NC(=O)Nc3nccs3)cc2)n1 [Example 36ay]
MEASURE: pIC50
DATA VALUE: 8.93
//
COMPOUND: CS(=O)(=O)C1(c2cc(N3CCOCC3)nc(-c3ccc(NC(=O)Nc4ncns4)cc3)n2)CC1 [Example 36s]
MEASURE: pIC50
DATA VALUE: 8.32
//
COMPOUND: C[C@H]1COCCN1c1cc(C2(S(=O)(=O)CCO)CC2)nc(-c2ccc(NC(=O)NCCCO)cc2)n1 [Example 16f]
MEASURE: pIC50
DATA VALUE: 7.67
//
COMPOUND: N#CCCNC(=O)Nc1ccc(-c2nc(N3CCOCC3)cc(C3(S(=O)(=O)c4ccc(F)cc4)CC3)n2)cc1 [Example 36am]
MEASURE: pIC50
DATA VALUE: 7.59
//
COMPOUND: C[C@H]1COCCN1c1cc(C2(S(=O)(=O)CCCO)CCOCC2)nc(-c2ccc(NC(=O)NC3CC3)cc2)n1 [Example 36cc]
MEASURE: pIC50
DATA VALUE: 6.89
//
COMPOUND: CCNC(=O)Nc1ccc(-c2nc(N3CCOC[C@@H]3C)cc(C3(S(=O)(=O)c4cncc(F)c4)CC3)n2)cc1 [Example 17a]
MEASURE: pIC50
DATA VALUE: 9.03
